Reported Soybean plant response rating is given for each of the following molecules.
Tested on: soybean
PROTOCOL_DETAILS: Test B pre/postemergence soybean
Type: in vivo, Glycine max
EXPERIMENTAL_PARAMETERS: Rate 500 g/ha, Postemergence; scale 0 to 10, 0 no effect, 10 complete control
Could you respond with only the numeric value?

Please review the following examples before continuing.
Cc1cccc(Cl)c1-n1c(=O)on(C(=O)N(c2ccc(F)cc2)C(C)C)c1=O	3
CCCn1c(=O)on(C(=O)N(c2ccc(F)cc2)C(C)C)c1=O	5
COc1cccc(C)c1-n1c(=O)on(C(=O)N(c2ccc(F)cc2F)C(C)C)c1=O	1

# Soybean plant response rating of CC(C)N(C(=O)n1oc(=O)n(-c2ccnn2C)c1=O)c1ccc(F)cc1 = 5

# Soybean plant response rating of CC(C)N(C(=O)n1oc(=O)n(CC(C)(C)C)c1=O)c1ccc(F)cc1F = 8

# Soybean plant response rating of Cc1ccccc1-n1c(=O)on(C(=O)N(c2cc(F)cc(F)c2)C(C)C)c1=O = 1

# Soybean plant response rating of Cc1cccc(C)c1-n1c(=O)on(C(=O)N(c2ccc(Cl)cc2)C(C)C)c1=O = 2

* * *

Reported Nutsedge plant response rating is given for each of the following molecules.
Tested on: purple nutsedge
PROTOCOL_DETAILS: Test B pre/postemergence purple nutsedge
Assay type: in vivo, Cyperus rotundus
EXPERIMENTAL_PARAMETERS: Preemergence, Rate 250 g/ha; scale 0 to 10, 0 is no effect, 10 is complete control

Please review the following examples before continuing.
CC(=O)NCn1c(=O)on(C(=O)N(c2ccc(F)cc2)C(C)C)c1=O	0
CC(C)N(C(=O)n1oc(=O)n([C@H](C)c2ccccc2)c1=O)c1ccc(F)cc1	0
CC(C)N(C(=O)n1oc(=O)n(CC2=NOCC2)c1=O)c1ccc(F)cc1	0
CC(C)N(C(=O)n1oc(=O)n(C(C)C(=O)N(C)C)c1=O)c1ccccc1 (centres unmarked)	0
CC(C)N(C(=O)n1oc(=O)n(CCl)c1=O)c1ccccc1	0

# Nutsedge plant response rating of CC(C)N(C(=O)n1oc(=O)n(C(C)Cl)c1=O)c1ccccc1 (centres unmarked) = 0

# Nutsedge plant response rating of CSc1ccc(N(C(=O)n2oc(=O)n(-c3ccccc3C)c2=O)C(C)C)cc1 = 0

# Nutsedge plant response rating of Cc1nc(C)c(C(C)n2c(=O)on(C(=O)N(c3ccccc3)C(C)C)c2=O)s1 (centres unmarked) = 0

* * *

System: giant foxtail
PROTOCOL_DETAILS: Test B pre/postemergence giant foxtail
Assay type: in vivo, Setaria faberii
EXPERIMENTAL_PARAMETERS: Preemergence, Rate 62 g/ha; scale of 0 to 10 where 0 is no effect and 10 is complete control
READOUT_LABEL: Giant foxtail plant response rating
Could you respond with only the numeric value?

Please review the following examples before continuing.
CCN(CC)C(=O)Cn1c(=O)on(C(=O)N(c2ccc(F)cc2)C(C)C)c1=O	2
CC(=O)OCC(CCl)n1c(=O)on(C(=O)N(c2ccc(F)cc2F)C(C)C)c1=O (racemic)	5

# Giant foxtail plant response rating of COC(Cn1c(=O)on(C(=O)N(c2ccc(F)cc2)C(C)C)c1=O)OC = 9

# Giant foxtail plant response rating of CC(C)N(C(=O)n1oc(=O)n(C(C)C)c1=O)c1cnccn1 = 0
